# System: narcotized dog
# Experiment description: Hemodynamic parameters in the narcotized dog
# Type: in vivo
# Condition info: 0.03 mg/kg p.o.
Parameter: BP blood pressure, duration of variation (t)

Solved entries (count: 5):
# Compound, Test result
records = [
    ("CC1=C(C(=O)CS(=O)(=O)NC(C)C)C(c2cc([N+](=O)[O-])ccc2Cl)C(C(=O)OC(C)C)=C(C)N1 (stereo not drawn)", "> 60 min"),
    ("CC1=C(C(=O)CS(=O)(=O)NC(C)C)C(c2cc(Cl)ccc2Cl)C(C(=O)OC(C)C)=C(C)N1 (stereo not drawn)", "> 120 min"),
    ("CCCOCCOC(=O)C1=C(C)NC(C)=C(C(=O)CS(=O)(=O)NC(C)C)C1c1cccc([N+](=O)[O-])c1 (stereo not drawn)", "> 60 min"),
    ("CNS(=O)(=O)CC(=O)C1=C(C)NC(C)=C(C(=O)OC(C)C)C1c1cccc([N+](=O)[O-])c1 (stereo not drawn)", "> 90 min"),
    ("CC1=C(C(=O)CS(=O)(=O)NC(C)C)[C@H](c2cccc([N+](=O)[O-])c2)C(C(=O)O[C@@H](C)c2ccccc2)=C(C)N1", "> 120 min"),
]

Now look at this entry.
Just so you know, measured BP blood pressure, duration of variation (t) for CCNS(=O)(=O)CC(=O)C1=C(C)NC(C)=C(C(=O)OC(C)C)C1c1cccc([N+](=O)[O-])c1 (stereo not drawn) came out at > 60 min

----------
# Test system: ^3 H-nifedipine (or ^3 H-nitrendipine) binding, rabbit or guinea pig heart membranes
# Experiment description: 3H-Nifedipine binding determinations
# Condition info: read-out: IC50 (half-maximum inhibition of specific 3H-nifedipine binding), as repeated in the text
Parameter: pIC50
Numbers only, as −log10 of the molar value.

Measured on ^3 H-nifedipine (or ^3 H-nitrendipine) binding, rabbit or guinea pig heart membranes, CCNS(=O)(=O)CC(=O)C1=C(C)NC(C)=C(C(=O)OC(C)C)C1c1cccc([N+](=O)[O-])c1 (stereo not shown) has a documented pIC50 of 7.52

----------
# Test system: narcotized dog
# Experiment description: Hemodynamic parameters in the narcotized dog
# Format: in vivo
# Condition info: 0.03 mg/kg p.o.
Parameter: CBF coronary blood flow, duration of variation (t) (min)
One number for each entry, in min.

Solved entries (count: 2):
# Compound, Test result
rows = [
    ("CC1=C(C(=O)CS(=O)(=O)NC(C)C)C(c2cc(Cl)ccc2Cl)C(C(=O)OC(C)C)=C(C)N1 (stereo not drawn) [E]", 70),
    ("CCCOCCOC(=O)C1=C(C)NC(C)=C(C(=O)CS(=O)(=O)NC(C)C)C1c1cccc([N+](=O)[O-])c1 (stereo not drawn) [F]", 120),
]

Just so you know, measured CBF coronary blood flow, duration of variation (t) for CCNS(=O)(=O)CC(=O)C1=C(C)NC(C)=C(C(=O)OC(C)C)C1c1cccc([N+](=O)[O-])c1 (stereo not drawn) [A] came out at 90

----------
# Test system: ^3 H-nifedipine (or ^3 H-nitrendipine) binding, rabbit or guinea pig heart membranes
# Experiment description: 3H-Nifedipine binding determinations
# Condition info: reference compound nifedipine established as 100%
Exercise: state measured A: % max. inhib. (maximum inhibition of specific binding) for each of the compounds provided.
Numbers only, in %.

# Compound, Unit of measurement, Test result
data = [
    ("COC(=O)C1=C(C)NC(C)=C(C(=O)OC)C1c1ccccc1[N+](=O)[O-] [nifedipine, reference compound]", "%", 100),
    ("CCCOCCOC(=O)C1=C(C)NC(C)=C(C(=O)CS(=O)(=O)NC(C)C)C1c1cccc([N+](=O)[O-])c1 (stereo not shown)", "%", 99),
    ("CC1=C(C(=O)CS(=O)(=O)NC(C)C)C(c2cc([N+](=O)[O-])ccc2Cl)C(C(=O)OC(C)C)=C(C)N1 (stereo not shown)", "%", 100),
]

Just so you know, measured A: % max. inhib. (maximum inhibition of specific binding) for "CC1=C(C(=O)CS(=O)(=O)NC(C)C)[C@H](c2cccc([N+](=O)[O-])c2)C(C(=O)O[C@@H](C)c2ccccc2)=C(C)N1" came out at 100

----------
# Test system: ^3 H-nifedipine (or ^3 H-nitrendipine) binding, rabbit or guinea pig heart membranes
# Experiment description: 3H-Nifedipine binding determinations
# Condition info: reference compound nifedipine established as 100%
Parameter: A: % max. inhib. (maximum inhibition of specific binding) (%)
One number for each entry, in %.

Solved entries (count: 3):
# Compound, Test result
measured = [
    ("CC1=C(C(=O)CS(=O)(=O)NC(C)C)C(c2cc(Cl)ccc2Cl)C(C(=O)OC(C)C)=C(C)N1 (stereo not shown) [E]", 100),
    ("CNS(=O)(=O)CC(=O)C1=C(C)NC(C)=C(C(=O)OCC(F)(F)F)C1c1cccc([N+](=O)[O-])c1 (stereo not shown) [C]", 100),
    ("CCNS(=O)(=O)CC(=O)C1=C(C)NC(C)=C(C(=O)OC(C)C)C1c1cccc([N+](=O)[O-])c1 (stereo not shown) [A]", 100),
]

Now look at this entry.
Just so you know, measured A: % max. inhib. (maximum inhibition of specific binding) for CNS(=O)(=O)CC(=O)C1=C(C)NC(C)=C(C(=O)OC(C)C)C1c1cccc([N+](=O)[O-])c1 (stereo not shown) [B] came out at 94

----------
Exercise: state measured CBF coronary blood flow, duration of variation (t) for each of the compounds provided.
# System: narcotized dog
# Experiment description: Hemodynamic parameters in the narcotized dog
# Type: in vivo
# Condition info: 0.03 mg/kg p.o.

Solved entries (count: 2):
# Compound, Test result
measured = [
    ("CC1=C(C(=O)CS(=O)(=O)NC(C)C)C(c2cc([N+](=O)[O-])ccc2Cl)C(C(=O)OC(C)C)=C(C)N1 (stereo not drawn) [D]", "> 120 min"),
    ("CC1=C(C(=O)CS(=O)(=O)NC(C)C)[C@H](c2cccc([N+](=O)[O-])c2)C(C(=O)O[C@@H](C)c2ccccc2)=C(C)N1 [G]", "> 120 min"),
]

Now look at this entry.
Just so you know, measured CBF coronary blood flow, duration of variation (t) for CNS(=O)(=O)CC(=O)C1=C(C)NC(C)=C(C(=O)OC(C)C)C1c1cccc([N+](=O)[O-])c1 (stereo not drawn) [B] came out at > 90 min
